Source listed as ChEMBL document CHEMBL3988442.

# Percent Effect listing for each entry below
# Target entity: Proteasome subunit beta (Trypanosoma cruzi) (UniProt O96673)
# Sequence (whole entry): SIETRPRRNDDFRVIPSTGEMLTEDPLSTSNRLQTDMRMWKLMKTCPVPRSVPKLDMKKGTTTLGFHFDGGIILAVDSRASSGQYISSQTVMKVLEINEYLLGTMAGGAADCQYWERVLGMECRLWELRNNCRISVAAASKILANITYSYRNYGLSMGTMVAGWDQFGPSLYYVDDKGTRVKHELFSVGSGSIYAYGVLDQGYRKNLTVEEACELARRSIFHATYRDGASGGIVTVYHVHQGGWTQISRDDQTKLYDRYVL
# Assay procedure: Trypanosoma cruzi proteasome chymotrypsin-like activity (TcProtChymo) assay.
# Format: functional
# Parameters: scale not given: in the data most compounds retested in dose-response had high values
# Condition summary: 9.37 µM
Measure name: Percent Effect (%)

compound=O=C1CCCN1Cc1ncn2c1CN(C(=O)c1cccc(F)c1)CCC2 reading=13.3
compound="O=C(NCC(O)c1ccc(F)c(F)c1)c1cccnc1O (stereo unspecified)" reading=24.9
compound="CC(NC(=O)N(C)Cc1ccc(Cl)s1)c1ccccn1 (stereo unspecified)" reading=6.86
compound="CCc1cnc(CN(C)C2CCN(CCc3ccccn3)C2)o1 (stereo unspecified)" reading=25.6
compound=CS(=O)(=O)N1CC[C@H]2[C@H](C[C@@H](Cn3cncn3)N2CC2CC2)C1 reading=7.16
compound=c1ccc(-c2ccc3nc(C4CCN(CC5CC5)CC4)nn3c2)cc1 reading=6.08
compound=O=C(c1cccc(CNS(=O)(=O)c2ccccc2F)c1)N1CCCC1 reading=5.25
compound=CNc1nc(CNC(=O)Nc2cccc(-c3nnco3)c2)cs1 reading=4.13
compound=CCc1cccc(NS(=O)(=O)c2cc3c(c(C(=O)O)c2)OCCO3)c1 reading=20.9
compound=CCc1ncnc2c1CCN(C(=O)N1CCCC1)CC2 reading=12.3
compound="Fc1ccc2[nH]c(C3CCCN3CCc3ccccn3)nc2c1 (stereo unspecified)" reading=18.6
